# credit: patent US6643591B1

Target Desc: CYP2C9 (Homo sapiens)
Sequence (P11712 whole entry): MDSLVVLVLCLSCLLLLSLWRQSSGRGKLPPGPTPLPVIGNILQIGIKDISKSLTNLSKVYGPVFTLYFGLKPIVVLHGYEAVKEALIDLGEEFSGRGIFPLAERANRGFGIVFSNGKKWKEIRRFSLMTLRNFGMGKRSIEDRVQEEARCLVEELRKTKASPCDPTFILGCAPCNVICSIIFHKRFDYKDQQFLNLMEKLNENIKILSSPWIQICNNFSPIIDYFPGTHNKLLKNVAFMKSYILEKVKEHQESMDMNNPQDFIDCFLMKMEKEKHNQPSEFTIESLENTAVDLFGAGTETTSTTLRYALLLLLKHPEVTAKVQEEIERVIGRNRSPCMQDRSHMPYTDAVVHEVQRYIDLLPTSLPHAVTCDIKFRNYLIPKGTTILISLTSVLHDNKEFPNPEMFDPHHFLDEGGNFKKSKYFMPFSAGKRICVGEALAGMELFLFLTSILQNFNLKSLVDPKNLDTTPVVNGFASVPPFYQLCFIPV
Study Conditions: human, pH 7.4
Observable: Intramolecular KIE (kH/kD)
Reply briefly: the number, and no unit.

Form: compound = `Cc1ccc(C#N)cc1` ; Intramolecular KIE (kH/kD) = 11.1

For record `Cc1ccc(Br)cc1` the listed Intramolecular KIE (kH/kD) is 6.9

compound `Cc1ccc(Cl)cc1` , Intramolecular KIE (kH/kD) observed: 6.2

Short answer for `COc1ccccc1C` : Intramolecular KIE (kH/kD) was 6.3

---

Target Desc: CYP1A2 (Homo sapiens, UniProt P05177)
Sequence (P05177 whole entry): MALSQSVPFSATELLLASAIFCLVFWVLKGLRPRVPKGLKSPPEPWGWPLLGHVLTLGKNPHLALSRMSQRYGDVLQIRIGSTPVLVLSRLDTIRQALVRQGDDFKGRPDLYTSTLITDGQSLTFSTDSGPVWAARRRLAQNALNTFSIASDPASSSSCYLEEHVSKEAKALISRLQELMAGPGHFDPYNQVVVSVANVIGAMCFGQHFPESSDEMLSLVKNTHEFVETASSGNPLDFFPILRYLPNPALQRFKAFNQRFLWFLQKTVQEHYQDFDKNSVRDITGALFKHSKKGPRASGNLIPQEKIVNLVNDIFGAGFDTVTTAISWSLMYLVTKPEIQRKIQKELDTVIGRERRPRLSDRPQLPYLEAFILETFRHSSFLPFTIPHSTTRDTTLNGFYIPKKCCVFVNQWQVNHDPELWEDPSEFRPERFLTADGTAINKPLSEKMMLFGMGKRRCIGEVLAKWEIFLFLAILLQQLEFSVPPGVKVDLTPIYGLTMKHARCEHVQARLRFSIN
Study Conditions: pH 7.4
Observable: Intramolecular KIE (kH/kD)

Item Cc1ccc(C#N)cc1 [CN, p-tolunitrile] was tested on CYP1A2 (Homo sapiens, UniProt P05177); the reported Intramolecular KIE (kH/kD) is 10.1 (2)

Log: CYP1A2 (Homo sapiens, UniProt P05177), compound Cc1ccc(Br)cc1 [Br, p-bromotoluene] , Intramolecular KIE (kH/kD) = 6.83 (8)

Entry Cc1ccccc1 [H, toluene] ; assay system CYP1A2 (Homo sapiens, UniProt P05177); Intramolecular KIE (kH/kD) recorded at 6.1 (4)

# Intramolecular KIE (kH/kD) measured on CYP1A2 (Homo sapiens, UniProt P05177) for item COc1ccccc1C [o-Methylanisole, o-methylanisole] = 5.7
